Data origin: PubChem BioAssay (NCI)

system: HCT-116 colon; experiment: NCI-60 one-dose screen, 48 h (100 = growth as untreated, 0 = no growth, -100 = all killed); conditions: 10 µM unless noted
Compounds without any hit were thinned out: in the full panel of roughly 83,000, 20% have a hit.
I'd be grateful if you could share measured growth for these entries.
Answers are plain numbers, in %.

Some compounds with known growth results, for comparison:
# Smiles Data, growth / %
measured = [
    ("NCCN1CCN(c2nc(-c3ccccc3)nc3nc(-c4ccccc4)oc23)CC1", -82.2),
    ("Cc1ccc(NC(=O)c2ccc(CN3CCN(C)CC3)c(C(F)(F)F)c2)cc1Oc1ccc(-c2[nH]nc3ncnc(N)c23)cc1", 8.72),
]

Count: 3. Required value per item: growth.
1. c1cncc(-c2cn3nc(-c4c[nH]c5ccccc45)sc3n2)c1
2. N/C(=N\OC(=O)CSc1nc2ccccc2s1)c1ccc2ccccc2c1
3. O=c1cc(-c2ccccc2)nc2sc(-c3c[nH]c4ccc(Br)cc34)nn12

1. 28.8
2. 103
3. 103
